subject-of-test: Cell-associated proTGFβ1 (hGARP-proTGFβ1 and hLRRC33-proTGFβ1)
protocol-summary: MSD-SET, hIgG4
metric: Cell AVRG (average KD) (nM)

binder: Ab22 (antibody, V domains shown) VH: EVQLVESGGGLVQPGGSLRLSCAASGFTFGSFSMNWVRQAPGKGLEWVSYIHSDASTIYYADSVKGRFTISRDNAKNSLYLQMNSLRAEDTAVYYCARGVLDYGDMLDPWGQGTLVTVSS VL: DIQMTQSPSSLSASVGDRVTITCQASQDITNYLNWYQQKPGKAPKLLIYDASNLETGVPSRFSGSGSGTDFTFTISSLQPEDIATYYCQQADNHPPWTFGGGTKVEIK
metric: Cell AVRG (average KD)
unit-descriptor: nM
reported-value: 0.114
--
binder: Ab4 (antibody, IgG4, V domains shown) VH: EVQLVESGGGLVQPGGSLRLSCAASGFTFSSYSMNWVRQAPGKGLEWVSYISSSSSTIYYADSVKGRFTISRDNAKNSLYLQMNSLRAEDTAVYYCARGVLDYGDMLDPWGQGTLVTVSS VL: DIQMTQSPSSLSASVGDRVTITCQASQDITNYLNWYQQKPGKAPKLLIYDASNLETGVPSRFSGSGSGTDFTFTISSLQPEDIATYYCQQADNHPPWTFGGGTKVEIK
metric: Cell AVRG (average KD)
unit-descriptor: nM
reported-value: 2.3
--
binder: Ab31 (antibody, V domains shown) VH: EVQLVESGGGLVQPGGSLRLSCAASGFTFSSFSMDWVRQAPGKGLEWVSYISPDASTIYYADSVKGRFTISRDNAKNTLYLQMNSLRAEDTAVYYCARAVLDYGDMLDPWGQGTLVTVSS VL: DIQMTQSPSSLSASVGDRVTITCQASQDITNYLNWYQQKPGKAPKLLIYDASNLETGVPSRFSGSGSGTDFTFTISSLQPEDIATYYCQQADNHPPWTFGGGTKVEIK
metric: Cell AVRG (average KD)
unit-descriptor: nM
reported-value: 0.058
